Ref: patent US11357779B2

assay.info: Noncompartmental pharmacokinetic parameters (Cmax, Tmax, AUC, Racc) in QD and BID cohorts of Form B
Assay type: in vivo, human
condition.summary: human, plasma, oral, 200 mg, Compound III; 200 mg BID of Form B; Cohort 8; Day 1; read-out: AUClast (Mean)
reported.endpoint: AUC(0-t) (ng·h/mL)
Value expressed in ng·h/mL; do not type the unit.

Problem: Form field: reported AUC(0-t) of O=C1NCC2(CCCCC2)n2c1cc1cnc(Nc3ccc(N4CCNCC4)cn3)nc12 [Compound III]
Solution: 17.2

----------
assay.info: Plasma concentration versus time of Compound I and metabolite Compound III in patients dosed QD or BID with Form B of Compound II plus fulvestrant
Format: in vivo, human
condition.summary: human, plasma, oral, 100 mg, 100 mg BID of Form B, Day 1, 0.0 h, Mean; read-out: Compound III Concentration
reported.endpoint: concentration at 0 h
The reply should read as a number followed by its unit.

Problem: Form field: reported concentration at 0 h of "O=C1NCC2(CCCCC2)n2c1cc1cnc(Nc3ccc(N4CCNCC4)cn3)nc12"
Solution: 0 µg/mL

----------
assay.info: Pharmacokinetics of Compound I in healthy volunteers after a single dose of Form B of Compound II
Assay type: in vivo, human
condition.summary: human, blood, oral, single 100 mg dose of Form B of Compound II, read-out: Vz/F
reported.endpoint: Vd/F (L)
Value expressed in L; do not type the unit.

Problem: Form field: reported Vd/F of "CC(C)N1CCN(c2ccc(Nc3ncc4cc5n(c4n3)C3(CCCCC3)CNC5=O)nc2)CC1"
Solution: 11300

----------
assay.info: Plasma concentration versus time of Compound I and metabolite Compound III in patients dosed QD or BID with Form B of Compound II plus fulvestrant
Assay type: in vivo, human
condition.summary: human, plasma, oral, 100 mg, 100 mg BID of Form B, Day 1, 8.0 h, Median; read-out: Compound III Concentration
reported.endpoint: concentration at 8 h
The reply should read as a number followed by its unit.

Problem: Form field: reported concentration at 8 h of "O=C1NCC2(CCCCC2)n2c1cc1cnc(Nc3ccc(N4CCNCC4)cn3)nc12"
Solution: 0 ng/mL

----------
assay.info: Noncompartmental pharmacokinetic parameters (Cmax, Tmax, AUC, Racc) in QD and BID cohorts of Form B
Assay type: in vivo, human
condition.summary: human, plasma, oral, 650 mg, Cohort 5, 650 mg QD of Form B, Day 1; read-out: AUClast, Median
reported.endpoint: AUC(0-t) (ng·h/mL)
Value expressed in ng·h/mL; do not type the unit.

Problem: Form field: reported AUC(0-t) of "CC(C)N1CCN(c2ccc(Nc3ncc4cc5n(c4n3)C3(CCCCC3)CNC5=O)nc2)CC1"
Solution: 805

----------
assay.info: Plasma concentration versus time of Compound I and metabolite Compound III in patients dosed QD or BID with Form B of Compound II plus fulvestrant
Format: in vivo, human
condition.summary: human, plasma, oral, 200 mg, Cohort 8, 200 mg BID of Form B, Day 29, 3.0 h; read-out: Compound I Concentration, Mean
reported.endpoint: concentration at 3 h (ng/mL)
Value expressed in ng/mL; do not type the unit.

Problem: Form field: reported concentration at 3 h of "CC(C)N1CCN(c2ccc(Nc3ncc4cc5n(c4n3)C3(CCCCC3)CNC5=O)nc2)CC1"
Solution: 15.2
